Hello, the source for this data is patent US8633208B2, in case you need it.

Kindly state melting point for each of the entries shown.
Counter-ions that a name gives are not always drawn.

[ask] Would you kindly share the measured melting point for COc1ccc(-c2ncc3cc(-n4ccnc4C)ccc3n2)cc1 (as salt: hydrochloride) ?
[reply] 198.3 to 200.3 °C

[ask] Entry to check: `Cc1cn(-c2ccc3nc(-c4ccoc4)ncc3c2)cn1`
[reply] 160.5 to 163.2 °C

[ask] // same read-out, input: `COc1cccc(-c2ncc3cc(-n4cnc(C)c4)ccc3n2)c1`
[reply] 294 to 296 °C

[ask] Similarly, CN(C)c1ccc(-c2ccc3cc(-n4ccnc4)ccc3n2)cc1 (as salt: hydrochloride) [Example 22, trihydrochloride] ?
[reply] 284 to 286 °C

[ask] Repeat for the following compound: Cc1cn(-c2ccc3nc(-c4ccc5c(c4)OCO5)ncc3c2)cn1 (as salt: hydrochloride)
[reply] 215.3 to 218.7 °C

[ask] Also, COc1ccc(-c2ncc3cc(-n4cnc(C)c4)ccc3n2)cc1 (as salt: hydrochloride) please.
[reply] 201 to 202 °C

[ask] Please answer likewise for COc1ccc(-c2ccc3cc(-n4cnc(C)c4)ccc3n2)cc1 (as salt: hydrochloride) [Example 31, dihydrochloride]
[reply] 276 to 278 °C (dec.)

[ask] Would you mind doing `Cc1cn(-c2ccc3nc(-c4ccccc4)ncc3c2)cn1` as well?
[reply] 201.9 to 202.8 °C

[ask] Next: `Cc1nccn1-c1ccc2nc(-c3ccccc3)ncc2c1`
[reply] 198.3 to 200.3 °C

[ask] # repeat for Cc1cc(OC(F)(F)F)ccc1-c1ccc2cc(-n3ccnc3)ccc2n1 (as salt: hydrochloride) [Example 24, dihydrochloride]
[reply] 269.7 to 274.5 °C

====

Biological target: I2 Imidazoline Receptor
Assay: Binding study towards I2 imidazoline receptor subtype in rat brain ([3H]2-BFI displacement)
Conditions: read-out: [3H]2-BFI binding IC50; rat whole brain membranes, [3H]-2BFI 2.5x10-9 M, 90 min at 25° C.
Counter-ions that a name gives are not always drawn.
I'd appreciate it if you could supply IC50 values for the items below.

[ask] Name the reported IC50 value associated with the compound c1cn(-c2ccc3nc(-c4ccc5c(c4)OCO5)ccc3c2)cn1 [Example 16, dihydrochloride]
[reply] 190 nM

[ask] Entry Cc1cc(OC(F)(F)F)ccc1-c1ccc2cc(-n3ccnc3)ccc2n1 [Example 24, dihydrochloride] please
[reply] 1140 nM

[ask] Same question, N=C(N)NCCCCN [Agmatine, reference compound] this time
[reply] > 10000 nM

[ask] Another compound to check: `c1cn(-c2ccc3nc(-c4ccc5c(c4)OCO5)ncc3c2)cn1`
[reply] 1340 nM

[ask] Try the compound `Cc1nccn1-c1ccc2nc(-c3ccccc3)ncc2c1`
[reply] 2400 nM

====

Biological target: human recombinant MAO-B (Homo sapiens (Human))
Assay: Monoaminooxidase (MAO) activity assay, MAO-Glo luminescent method, MAO-B
Conditions: read-out: MAO B activity IC50; human recombinant MAO-B, substrate 4 μM, 60 min room temperature
Where a name gives a salt, the structure may show the parent alone.
Property: pIC50
Scale note: pIC50 = -log10(concentration in M).

[ask] # value lookup — system human recombinant MAO-B (Homo sapiens (Human)), readout pIC50, item CN(C)c1ccc(-c2ccc3cc(-n4ccnc4)ccc3n2)cc1 [Example 22, trihydrochloride]
[reply] 5.83

====

Target: human recombinant MAO-B (Homo sapiens (Human), UniProt P27338)
Sequence (P27338 whole entry): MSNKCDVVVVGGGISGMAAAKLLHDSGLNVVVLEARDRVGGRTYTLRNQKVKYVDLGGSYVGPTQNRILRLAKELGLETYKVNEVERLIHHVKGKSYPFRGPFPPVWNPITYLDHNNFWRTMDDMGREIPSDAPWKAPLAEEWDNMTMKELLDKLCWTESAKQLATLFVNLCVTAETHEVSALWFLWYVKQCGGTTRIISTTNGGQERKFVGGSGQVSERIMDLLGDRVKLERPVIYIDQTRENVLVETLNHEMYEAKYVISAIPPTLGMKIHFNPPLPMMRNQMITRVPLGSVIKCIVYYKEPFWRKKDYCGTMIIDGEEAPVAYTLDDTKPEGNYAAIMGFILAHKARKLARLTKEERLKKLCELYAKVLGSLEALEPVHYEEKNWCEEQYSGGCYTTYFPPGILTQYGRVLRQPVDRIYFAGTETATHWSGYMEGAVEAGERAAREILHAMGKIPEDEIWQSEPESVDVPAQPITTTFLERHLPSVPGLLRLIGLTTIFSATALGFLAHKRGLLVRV
Assay: Monoaminooxidase (MAO) activity assay, MAO-Glo luminescent method, MAO-B
Conditions: read-out: MAO B activity IC50
Property: pIC50
Value format note: pIC50 is -log10 of concentration (mol/L); just state the number.

[ask] Consider the compound shown here: `c1ccc(-c2ccc3cc(-n4ccnc4)ccc3n2)cc1` What is its recorded pIC50?
[reply] 5.00
